# experiment description: photoluminescence quantum yield (fraction); solvent given as SMILES
# measurement conditions: in ClCCl
# if value of photoluminescence quantum yield reaches 0.2, tag 1; if it stays below, tag 0

[ask] Does the reported photoluminescence quantum yield for `Cc1cc2[nH]c3ccccc3c2c2[nH]c3ccccc3c12` fall at or above the 0.2 mark?
[reply] 1

[ask] Does the reported photoluminescence quantum yield for `COc1cc2c(cc1/C=C(\C#N)c1nc3ccccc3s1)c1ccccc1n2C` fall at or above the 0.2 mark?
[reply] 0

[ask] Does the reported photoluminescence quantum yield for `Cc1ccc(-c2cnc3ccc4ccccc4n23)cc1` fall at or above the 0.2 mark?
[reply] 1

[ask] Does the reported photoluminescence quantum yield for `COc1cc(OC)cc(C2=C3C(C)=C(I)C(C)=[N+]3[B-](F)(F)n3c(/C=C/c4c[nH]c5ccc([N+](=O)[O-])cc45)c(I)c(C)c32)c1` fall at or above the 0.2 mark?
[reply] 1

[ask] Does the reported photoluminescence quantum yield for `COc1ccc(-c2csc(/C(C#N)=C/c3ccc(C#N)cc3)n2)cc1` fall at or above the 0.2 mark?
[reply] 0

[ask] Does the reported photoluminescence quantum yield for `CC(C)(C)c1ccc(-n2c(-c3ccc(N(c4ccc(-c5ccc(N(c6ccc(-c7nc8c9ccccc9c9ccccc9c8n7-c7ccc(C(C)(C)C)cc7)cc6)c6ccc(-c7nc8c9ccccc9c9ccccc9c8n7-c7ccc(C(C)(C)C)cc7)cc6)cc5)cc4)c4ccc(-c5nc6c7ccccc7c7ccccc7c6n5-c5ccc(C(C)(C)C)cc5)cc4)cc3)nc3c4ccccc4c4ccccc4c32)cc1` fall at or above the 0.2 mark?
[reply] 1

[ask] Does the reported photoluminescence quantum yield for COc1ccc(C2=C(c3ccc(OC)cc3)c3cccc4c5c(cc(c34)O2)=NC2C=C(Br)C(Br)=CC2N=5)cc1 (stereo not drawn) fall at or above the 0.2 mark?
[reply] 1

[ask] Does the reported photoluminescence quantum yield for `CCCCN(CCCC)c1ccc2c(c1)C#CC#Cc1cc(C(F)(F)F)ccc1C#Cc1cc(c3cc1C#Cc1ccc(C(F)(F)F)cc1C#CC#Cc1cc(N(CCCC)CCCC)ccc1C#C3)C#C2` fall at or above the 0.2 mark?
[reply] 1

[ask] Does the reported photoluminescence quantum yield for `CCOC(=O)c1sc(-c2ccc(-c3cc(-c4ccc(C(C)(C)C)cc4)c(C(=O)OCC)s3)s2)cc1-c1ccc(C(C)(C)C)cc1` fall at or above the 0.2 mark?
[reply] 0

[ask] Does the reported photoluminescence quantum yield for `F[B-]1(F)n2c(c3ccccc3c2-c2ccccc2)C(c2ccccc2)=C2c3ccccc3C(c3ccccc3)=[N+]21` fall at or above the 0.2 mark?
[reply] 1

[ask] Does the reported photoluminescence quantum yield for `CCCCN(CCCC)c1ccc2c#cc3cc4c#cc5ccc(C(F)(F)F)cc5c#cc#cc5cc(N(CCCC)CCCC)ccc5c#cc4cc3c#cc3ccc(C(F)(F)F)cc3c#cc#cc2c1` fall at or above the 0.2 mark?
[reply] 1

[ask] Does the reported photoluminescence quantum yield for `CN(C)CCN(Cc1c2ccccc2cc2ccccc12)c1ccc([N+](=O)[O-])cc1[N+](=O)[O-]` fall at or above the 0.2 mark?
[reply] 0

[ask] Does the reported photoluminescence quantum yield for `O=c1c2cc(I)ccc2nc2n1[B-](F)(F)[n+]1ccccc1-2` fall at or above the 0.2 mark?
[reply] 1

[ask] Does the reported photoluminescence quantum yield for `COc1ccc(C#Cc2c3ccccc3c(C#Cc3ccc(OC)cc3)c3cc4ccccc4cc23)cc1` fall at or above the 0.2 mark?
[reply] 1

[ask] Does the reported photoluminescence quantum yield for COc1ccc(C2=Cc3ccccc3P2(=O)c2ccccc2)cc1 (stereo not drawn) fall at or above the 0.2 mark?
[reply] 1

[ask] Does the reported photoluminescence quantum yield for `CCCCc1ccc2ccc3c(CCCC)ccc4ccc1c2c43` fall at or above the 0.2 mark?
[reply] 1

[ask] Does the reported photoluminescence quantum yield for `CCn1c2c(-c3ccc(-c4cccs4)s3)cc(C(C)(C)C)cc2c2cc(C(C)(C)C)cc(-c3ccc(-c4cccs4)s3)c21` fall at or above the 0.2 mark?
[reply] 0

[ask] Does the reported photoluminescence quantum yield for `CC(=O)c1c(N[C@@H](CC(C)C)C(=O)O)c2ccc(N(C)C)cc2oc1=O` fall at or above the 0.2 mark?
[reply] 0

[ask] Does the reported photoluminescence quantum yield for `c1ccc(-c2c3ccccc3c(-c3ccccc3)c3cc4ccccc4cc23)cc1` fall at or above the 0.2 mark?
[reply] 1

[ask] Does the reported photoluminescence quantum yield for `c1ccc2c(c1)[nH]c1c3[nH]c4ccccc4c3c3nsnc3c21` fall at or above the 0.2 mark?
[reply] 0

[ask] Does the reported photoluminescence quantum yield for `COc1cc(C2=CC(c3ccccc3)=C(c3ccccc3)C2)cc(OC)c1OC` fall at or above the 0.2 mark?
[reply] 0

[ask] Does the reported photoluminescence quantum yield for `COC(=O)C1=C(C(=O)OC)C2=C[C@H]3c4ccccc4[C@]2([Se]1)c1ccccc13` fall at or above the 0.2 mark?
[reply] 1
